src = patent US20140295512A1

test summary: KARI assay of purified S. exigua KARI and variants with NADPH (Examples 6-9)
Format: biochemical
details: read-out: Km for cofactor NADPH
This section presents molecules with their documented Km values.
Express it in µM; write the number only.

Example molecules with recorded Km:
Se1_KARI^4E10: S. exigua KARI variant L57V, R58P, S61C (protein, UniProt D0WGK0 1-342, looked up, variant L57V R58P S61C) Ketol-acid reductoisomerase …: MSVKTKEKEMAVTILYEQDVDPKVIQGLKVGIIGYGSQGHAHALNLMDSGVDVRVGVPEGCSSWKTAEEAGLKVTDMDTAAEEADVIMVLVPDEIQPKVYQEHIAAHLKAGNTLAFAHGFNIHYGYIVPPEDVNVIMCAPKGPGHIVRRQFTEGSGVPDLACVQQDATGNAWDIVLSYCWGVGGARSGIIKATFAEETEEDLFGEQAVLCGGLVELVKAGFETLTEAGYPPELAYFECYHEMKMIVDLMYESGIHFMNYSISNTAEYGEYYAGPKVINEQSREAMKEILKRIQDGSFAQEFVDDCNNGHKRLLEQREAINTHPIETTGAQIRSMFSWIKKED | 4
Se1_KARI^1AA10: S. exigua KARI variant S61C, S63D, I95T (protein, UniProt D0WGK0 1-342, looked up, variant S61C S63D I95T) Ketol-acid reductoisomerase …: MSVKTKEKEMAVTILYEQDVDPKVIQGLKVGIIGYGSQGHAHALNLMDSGVDVRVGLREGCSDWKTAEEAGLKVTDMDTAAEEADVIMVLVPDETQPKVYQEHIAAHLKAGNTLAFAHGFNIHYGYIVPPEDVNVIMCAPKGPGHIVRRQFTEGSGVPDLACVQQDATGNAWDIVLSYCWGVGGARSGIIKATFAEETEEDLFGEQAVLCGGLVELVKAGFETLTEAGYPPELAYFECYHEMKMIVDLMYESGIHFMNYSISNTAEYGEYYAGPKVINEQSREAMKEILKRIQDGSFAQEFVDDCNNGHKRLLEQREAINTHPIETTGAQIRSMFSWIKKED | 367

Shift focus to the following entry.
Q: Can you share its Km? I mean this molecule: Se1_KARI^AC1: S. exigua KARI variant S63D, I95A (protein, UniProt D0WGK0 1-342, looked up, variant S63D I95A) Ketol-acid reductoisomerase …: MSVKTKEKEMAVTILYEQDVDPKVIQGLKVGIIGYGSQGHAHALNLMDSGVDVRVGLREGSSDWKTAEEAGLKVTDMDTAAEEADVIMVLVPDEAQPKVYQEHIAAHLKAGNTLAFAHGFNIHYGYIVPPEDVNVIMCAPKGPGHIVRRQFTEGSGVPDLACVQQDATGNAWDIVLSYCWGVGGARSGIIKATFAEETEEDLFGEQAVLCGGLVELVKAGFETLTEAGYPPELAYFECYHEMKMIVDLMYESGIHFMNYSISNTAEYGEYYAGPKVINEQSREAMKEILKRIQDGSFAQEFVDDCNNGHKRLLEQREAINTHPIETTGAQIRSMFSWIKKED
Result: 45
